SYSTEM: MERS RBD-hFc (MERS-CoV (isolate EMC/2012))
EXPERIMENT_DESCRIPTION: SPR Biacore, captured mAb, 37 C
So I've got a bunch of binders here, and I need their pKd values.
Answers are plain numbers, as −log10 of the molar value.

Here are 2 binders together with their reported answers.
H2aM15278N (antibody, V domains shown) VH: QVQLVQSGAEVKKPGASVKVSCKASGYTFTSHGISWVRQAPGQGFEWMGWIGTYNSNTDYAQNFQGRVTMTTDTSTSTAYMELRNLRSDDTAVYYCARERGPYYGMDVWGQGTTVTVSS VL: EIVLAQSPGTLSLSPGERATLSCRASQSVNSNYLAWYQQKPGQAPRLLIYGASSRATGIPDRFSGSGSGTDFTLTISRLEPEDFAVYYCQQYGNSLTFGPGTKVDFK ... 9.28
H1M15289N (antibody, V domains shown) VH: QVQLQESGPGLVKPSETLSLTCTVSGGSISSYYWSWIRQPPGKGLEWIGYIYYSGSANYNPSLKSRVTISVDTSKNQFSLKLSSVTAADTAVYYCVRDRDLLLDHWGQGTLVTVSS VL: EIVMTQSPATLSVSPGKRATLSCRASQSVSSNLAWYQQKPGQAPRLLIYGASTRTTGFPARFSGSGSGTDFTLTISSLQSEDFAVYYCQQYNNWPYTFGQGTMLEIK ... 9.56

For the next question, use this binder.
### Prompt Return the recorded pKd value; entry: H2aM15287N (antibody, V domains shown) VH: QLQLQESGPGLVKPSETLSLTCTVSGGSISSGNYYWGWIRQPPGKGLEWFGTIYYSGSTYYNPSLKSRVTISVDTSKNQFSLKLSSVTAADTAVYYCARRAAVGHFDYWGQGTLVTVSS VL: DIQMTQSPSTLSASVGDRVTITCRASQSISTWLAWYQQKPGKAPKLLIYEASSLESGVPSRFSGSGFGTEFTLTISRLQPDDFATYFCQQYNTYWTFGQGTKVEIK
### Response 7.96
